- System: cGAS activity in THP1 cells (IFNb as marker)
- method-summary: Cellular assay to measure cGAS activity (IFNb production in PMA-differentiated THP1 cells stimulated by RDG-Adenovirus-GFP)
- Format: cell-based, human
- condition-summary: Homo sapiens, THP-1, THP1 cells, PMA differentiated, RDG-Adenovirus-GFP 1000 MOI, IFNb AlphaLISA, overnight incubation; read-out: IC50 (μM), Cellular assay for Compounds 95-348
quantity-name: IC50

Illustrative cases are given below, each with its answer.
* OCCC1CCn2c1c(-c1cn[nH]c1)c1ccc(Cl)c(Cl)c12 (single isomer, unassigned; isomer 1) | > 10 µM
* COCCOCC(=O)N1CCn2c(c(-c3cn[nH]c3)c3ccc(Cl)c(Cl)c32)C1 | > 10 µM

We next turn to a different compound, shown below.
// IC50 lookup, key: Sc1nnc(-c2[nH]c3c(Cl)c(Cl)ccc3c2-c2cn[nH]c2)[nH]1
> 10 µM

====

- measured-target: recombinant human cGAS (Homo sapiens (Human))
- method-summary: In vitro inhibition assay of cGAS activity (cGAMP production, RapidFire mass spectrometry)
- Format: biochemical
- condition-summary: 10 nM recombinant human cGAS, 60 nM 75-bp dsDNA, ATP, GTP, room temperature 3 hours, read-out: IC50 (μM), In vitro inhibition assay for Compounds 1-94
quantity-name: IC50 (µM)
Lab book: enter the figure in µM, no units written.

Illustrative cases are given below, each with its answer.
* OC1CCCc2c(-c3cn[nH]c3)c3ccc(Cl)c(Cl)c3n2C1 (stereo not shown) | 0.0427
* OC1CCc2c(-c3cn[nH]c3)c3ccc(Cl)c(Cl)c3n2C1 (single isomer, unassigned) [Example 18] | 0.152
* Cc1nnc(NCc2[nH]c3c(Cl)c(Cl)ccc3c2-c2cn[nH]c2)s1 | 0.0423

// IC50 lookup, key: CN1CCOCC1CC(=O)N1CCn2c(c(-c3cn[nH]c3)c3ccc(Cl)c(Cl)c32)C1 (stereo not shown)
0.0223

// IC50 lookup, key: Cn1cnnc1NCc1[nH]c2c(Cl)c(Cl)ccc2c1-c1cn[nH]c1
0.0649

// IC50 lookup, key: O=C1NCCn2c1c(-c1cn[nH]c1)c1ccc(Cl)c(Cl)c12
0.0462

// IC50 lookup, key: Clc1ccc2c(-c3cn[nH]c3)c3n(c2c1Cl)CCC(c1nn[nH]n1)C3 (stereo not shown)
0.0449

====

- measured-target: recombinant human cGAS (Homo sapiens (Human), UniProt Q8N884)
- Sequence (Q8N884 whole entry): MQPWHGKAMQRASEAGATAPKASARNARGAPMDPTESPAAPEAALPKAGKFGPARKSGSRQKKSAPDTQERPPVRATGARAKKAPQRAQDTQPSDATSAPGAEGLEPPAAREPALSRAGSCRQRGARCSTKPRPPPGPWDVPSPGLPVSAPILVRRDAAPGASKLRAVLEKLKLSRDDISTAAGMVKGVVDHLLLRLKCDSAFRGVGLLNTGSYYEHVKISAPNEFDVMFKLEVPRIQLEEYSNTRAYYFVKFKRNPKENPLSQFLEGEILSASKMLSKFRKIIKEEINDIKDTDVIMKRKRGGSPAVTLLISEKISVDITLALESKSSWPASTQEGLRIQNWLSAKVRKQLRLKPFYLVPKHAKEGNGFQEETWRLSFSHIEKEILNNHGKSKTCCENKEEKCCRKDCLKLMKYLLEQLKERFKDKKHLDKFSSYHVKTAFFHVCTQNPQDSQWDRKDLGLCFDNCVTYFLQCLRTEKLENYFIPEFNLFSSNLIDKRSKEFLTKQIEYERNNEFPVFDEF
- method-summary: In vitro inhibition assay of cGAS activity (cGAMP production, RapidFire mass spectrometry)
- Format: biochemical
- condition-summary: 10 nM recombinant human cGAS, 60 nM 75-bp dsDNA, ATP, GTP, room temperature 3 hours, read-out: IC50 (μM), In vitro inhibition assay for Compounds 95-348
Counter-ions that a name gives are not always drawn.
quantity-name: IC50
Entry format: amount then unit.

- CCC(=O)NC1CCn2c1c(-c1cn[nH]c1)c1ccc(Cl)c(Cl)c12 (stereo not drawn): 0.0613 µM
- NC(=O)COc1cc(Cl)c(Cl)c2c1c(-c1cn[nH]c1)c1n2CCN(C(=O)CO)C1: 0.0306 µM

We next turn to a different compound, shown below.
I'm curious: which IC50 was measured for NCCCCCC(=O)NCC(=O)NC1CCc2c(-c3cn[nH]c3)c3ccc(Cl)c(Cl)c3n2C1 (stereo not drawn) [Example 196, formic acid salt] tested on recombinant human cGAS (Homo sapiens (Human), UniProt Q8N884)?
0.064 µM
